Test system: UACC-62
assayDetails: NCI tumour cell line growth inhibition, 48 h
Calls of active or inactive are those of the source. Cut-off read from the data, not from the text of the source: active = GI50 up to about 1.1 µM and inactive = higher.
The reply should name one outcome from Y for active, N for inactive

# count of solved cases: 6
[[record]]
compound = "CCC(=O)N/S(=N/S(=O)(=O)c1ccccc1)C(Cl)(Cl)Cl (stereo not drawn)"
qualitativelabel = "N"

[[record]]
compound = "CN1C(c2ccccc2)CS(=O)(=O)CS1(=O)=O (stereo not drawn)"
qualitativelabel = "N"

[[record]]
compound = "O=C1OC(=O)C2C3CCC(O3)C12 (stereo not drawn)"
qualitativelabel = "N"

[[record]]
compound = "CCc1ccccc1N1CCN(C(=O)c2cc(OC)c(OC)c(OC)c2)CC1"
qualitativelabel = "Y"

[[record]]
compound = "Nc1ccc(-c2nc3ccc(Cc4ccc5nc(-c6ccc(N)cc6)oc5c4)cc3o2)cc1"
qualitativelabel = "N"

[[record]]
compound = "CC1=NN=C(NCCN(C)C)C/C1=C/c1ccccc1Cl"
qualitativelabel = "N"


[ask] Please let me know the test result on file for `Cc1nc(O)nc2nc3cc(Cl)cc(Cl)c3c(NC(C)(CO)CO)c12` .
[reply] N

[ask] Assay result, entry `Oc1c2cc(Cl)cc1COCc1cc(Cl)cc(c1O)COCc1cc(Cl)cc(c1O)COC2` — outcome?
[reply] N

[ask] Check the results log: what was the call for `Cn1ncc2c(NCc3ccccc3)ncnc21` ?
[reply] N

[ask] Record lookup: outcome of this test for `O=C1C=C(c2c(O)ccc3ccccc23)c2cc(O)ccc2C1=O` ?
[reply] N

[ask] State the result this test recorded for `CCN(CC)CCC/N=c1\c2cc(OC)ccc2[nH]c2c([N+](=O)[O-])ccc(NCCCN(CC)CC)c12` .
[reply] N

[ask] What is the recorded call for this compound in the test? CCCCCCCN1C(=O)C(O)(c2ccc(C3(O)C(=O)N(CCCCCCC)c4ccccc43)s2)c2ccccc21 (stereo not drawn)
[reply] N

[ask] So what was the verdict on `Nc1c(-c2ccc(-c3c(N)[n+]([O-])c4ccccc4[n+]3[O-])cc2)[n+]([O-])c2ccccc2[n+]1[O-]` in this test?
[reply] N

[ask] For `Cc1nnc(Nc2ccc(Cl)cc2)o1` , which call appears in the assay record?
[reply] N

[ask] Recorded call for `CCC[C@@H](O)C[C@@H]1CCC[C@H](C[C@@H](O)CC)N1C` ?
[reply] N

[ask] What is the recorded call for this compound in the test? CN1N=C2c3ccccc3OC(c3ccccc3)[C@H]2C1c1ccccc1 (stereo partly drawn)
[reply] N

[ask] // outcome(item) with item = CC1NOC(=O)C1/N=N/c1cccc(Cl)c1 (stereo not drawn)
[reply] N

[ask] Field: outcome | Entry: `COC(=O)c1cc(C)n(NC(=O)OC(C)(C)C)c1C`
[reply] N

[ask] Call for entry `ClCCCSSCCCCl` :
[reply] N

[ask] Assay result, entry CCCCC1(N=[N+]=[N-])C(=O)c2cccc3c2N(CCC3)C1=O (stereo not drawn) — outcome?
[reply] N

[ask] Called result for `Cc1occc1/C(S)=N\c1ccc(Cl)c(C(=O)OCC2CC2)c1`
[reply] N

[ask] Dear colleague, could you share the recorded outcome for CCCCCCOP(=O)(OCCCCCC)OC(C(=O)OC)C(F)(F)F (stereo not drawn) when you have a moment?
[reply] N

[ask] For `CCCCCN(CCCCC)C(=O)[C@@H](CCC(=O)O)NC(=O)c1cc2ccccc2[nH]1` , which call appears in the assay record?
[reply] N

====

This listing pairs compounds with measured GI50.
Tested on: TK-10
assayDetails: NCI tumour cell line growth inhibition, 48 h
Calls of active or inactive are those of the source. Rule as the data show it: active = GI50 up to about 1.1 µM and inactive = higher.

A selection of reference data follows.
[[record]]
compound = "O=c1c2ccc(Cl)cc2oc2c(CSc3ccccc3)cccc12"
result = "> 55.3 µM (inactive)"

[[record]]
compound = "O=[N+]([O-])c1ccc(/N=N\\c2c(O)c(S(=O)(=O)O)cc3cc(S(=O)(=O)O)ccc23)cc1"
result = "> 100 µM (inactive)"

[[record]]
compound = "c1ccc2c(c1)-c1nc3ccccc3cc1C2N1CCOCC1 (stereo not given)"
result = "> 100 µM (inactive)"

[[record]]
compound = "COc1ccccc1C(=O)NCC1CCCN2CCCCC12 (stereo not given)"
result = "> 100 µM (inactive)"

[[record]]
compound = "CCOC(=O)c1[nH]c(-c2[nH]c(-c3[nH]c(-c4[nH]c(C(=O)OCC)c(C)c4C(=O)OCC)c(C(=O)OCC)c3C)c(C)c2C(=O)OCC)c(C(=O)OCC)c1C"
result = "> 100 µM (inactive)"


[ask] Notebook entry, TK-10 assay: GI50 of O=c1ncccn1[C@@H]1O[C@H](CO)[C@H](O)C1O (stereo not given in full) = ?
[reply] > 100 µM (inactive)

[ask] Field: GI50 (TK-10). Entry: CCOC(=O)C(C(=S)SC)c1nn2c(=O)cc(C)nc2s1 (stereo not given)
[reply] 35.1 µM (inactive)

[ask] Missing value: GI50, TK-10, entry `O=C1c2ccccc2C(=O)c2cc3c(cc21)C[S+]([O-])C3` . Fill in?
[reply] > 100 µM (inactive)

[ask] Lab note: need GI50 with TK-10 for entry O=C(O)C12C=CC(C1)c1ccccc12 (stereo not given) , please look it up.
[reply] > 100 µM (inactive)

[ask] Which measured GI50 belongs to `Cc1c(C(=O)C(=O)c2ccccc2)c(C)c(C(=O)C(=O)c2ccccc2)c(C)c1C(=O)C(=O)c1ccccc1` , tested on TK-10?
[reply] > 100 µM (inactive)

====

System: SK-MEL-5
assayDetails: NCI tumour cell line growth inhibition, 48 h
Activity calls are given as the source filed them. Cut-off read from the data, not from the text of the source: active = GI50 up to about 1.1 µM and inactive = higher.
measuredEndpoint: GI50

Known GI50 results, listed for orientation:
[[record]]
molecule = "O=[N+]([O-])c1ccc(/N=N\\c2c(O)c(S(=O)(=O)O)cc3cc(S(=O)(=O)O)ccc23)cc1"
result = "> 100 µM (inactive)"

[[record]]
molecule = "CCCCCCCCCCCOCCC1C(C(C)OCCN2CCCC2)OC2OC(C)(C)OC21 (stereo unspecified)"
result = "1.82 µM (inactive)"

[[record]]
molecule = "COc1ccc(C(=O)/C=C/c2ccc(OCC(=O)N3CCN(c4ccccc4)CC3)cc2)cc1OC"
result = "4.52 µM (inactive)"

[[record]]
molecule = "O=c1oc2ccccc2cc1-c1csc(Nc2cc(Cl)cc(Cl)c2)n1"
result = "> 56.1 µM (inactive)"

[[record]]
molecule = "COC1CC(NC(=O)C(F)(F)F)C(OC(C)=O)C(C)O1 (stereo unspecified)"
result = "> 100 µM (inactive)"


[ask] Item `O=C1Oc2cc3c(c4cccc1c24)O[C@H](c1ccccc1)[C@@H](c1ccccc1)[C@@H]3c1ccc(Cl)cc1` has what recorded GI50?
[reply] > 100 µM (inactive)

[ask] Consider the molecule shown here: CCOC1=NC(O)c2cccn2-c2sccc21 (stereo unspecified) What is its recorded GI50?
[reply] 96.4 µM (inactive)

[ask] # get_value(readout='GI50', item= `CSC(SC)=C(C#N)C(=O)Nc1ccc(Cl)cc1` )
[reply] 51.6 µM (inactive)

[ask] Given the molecule `C=CCNc1nc2c(s1)C(=O)c1ccccc1C2=O` , what is its reported GI50?
[reply] 1.7 µM (inactive)

[ask] Entry `N#C/C(=C/NC(=S)Nc1ccc(S(N)(=O)=O)cc1)C(N)=O` has what GI50?
[reply] > 100 µM (inactive)

====

System: SF-268
assayDetails: NCI tumour cell line growth inhibition, 48 h
Activity calls are given as the source filed them. No stated cut-off is given here; in the data, active = GI50 up to about 1.1 µM and inactive = higher.
Give your call using only these classes: active, inactive

[[record]]
molecule = "COc1ccc(/C=C2\\N=C3NC(=O)C(N4CCCCC4)=C(N)N3C2=O)cc1"
qualitativelabel = "inactive"

[[record]]
molecule = "CCCCC(C)C(OC(=O)CC(CC(=O)O)C(=O)O)C(CC(C)CC(O)CCCCC(O)CC(O)C(C)N)OC(=O)CC(CC(=O)O)C(=O)O (stereo not drawn)"
qualitativelabel = "inactive"


[ask] Per the records of this test, what outcome belongs to CCC1(OC(=O)CN)C(=O)OCc2c1cc1n(c2=O)Cc2cc3ccccc3nc2-1 (stereo not drawn) ?
[reply] active

[ask] Hello, I am checking results. What call was entered for `Cc1ccc(/C(C#N)=C/c2cccc([N+](=O)[O-])c2)cc1` ?
[reply] inactive

[ask] Outcome logged for `Nc1c(-c2ccc(-c3c(N)[n+]([O-])c4ccccc4[n+]3[O-])cc2)[n+]([O-])c2ccccc2[n+]1[O-]` in this assay:
[reply] inactive

[ask] For this molecule, state the assay outcome: COC1(OC)C2(Cl)CCC1(Cl)C(OC(C)=O)C2 (stereo not drawn)
[reply] inactive

[ask] How did this test come out for `COc1cc([C@@H]2c3cc4c(cc3[C@@H](c3c(O)cc(O)c5c3O[C@H](c3ccc(O)c(O)c3)[C@@H](O)C5)[C@H]3COC(=O)[C@H]23)OCO4)cc(OC)c1O` ?
[reply] inactive

[ask] Hello, I am checking results. What call was entered for `O=C(/C=C1\Nc2ccccc2N\C1=C\C(=O)c1ccc(Cl)cc1)c1ccccc1` ?
[reply] inactive

These entries and their values trace back to ChEMBL document CHEMBL1201862.
